Tested on: HPPD polypeptides (wild-type SEQ ID NO:1 and mutants)
Measurement Setup: in the presence of Cmpd. 1, 15 μM inhibitor, high substrate concentration; total change in signal normalized to no inhibitor
Assay Metric: Residual turnover (%)
Give bare numbers, in %.

Molecule	Assay Metric	Result Number
19 (protein, mutant HPPD polypeptide) MADLYENPMGLMGFEFIEFASPTPGTLEPIFEIMGFTKVATHRSKNVHLYRQGEINLILNNEPNSIASYFAAEHGPSVCGMAFRVKDSQKAYNRALELGAQPIHIDTGPMELNLPAIKGIGGAPLYLIDRFGEGSSIYDIDFVYLEGVERNPVGAGLKVIDHLTHNVYRGRMVYWANFYEKLFNFREARYFDIKGEYTGLTSKAMSAPDGMIRIPLNEESSKGAGQIEEFLMQFNGEGIQHVAFLTDDLVKTWDALKKIGMRFRTAPGDEYYEMLEGRLPDHGEPVDQLQARGILLDGSSVEGDKRLLLQIFSETLMGPVFFEFIQRKGHDGFGPDSFKVLFESVERDQVRRGVLTAD	Residual turnover	79

Read the next record carefully.
Input: Residual turnover for 16 (protein, mutant HPPD polypeptide) MADLYENPMGLMGFEFIEFASPTPGTLEPIFEIMGFTKVATHRSKNVHLYRQGEINLILNNEPNSIASYFAAEHGPSVCGMAFRVKDSQKAYNRALELGAQPIHIDTGPMELNLPAIKGIGGAPLYLIDRFGEGSSIYDIDFVYLEGVERNPVGAGLKVIDHLTHNVYRGRMVYWANFYEKLFNFREARYFDIKGEYTGLTSKAMSAPDGMIRIPLNEESSKGAGQIEEFLMQFNGEGIQHVAFLTDDLVKTWDALKKIGMRFMTAPSDSYYEMLEGRLPDHGEPVDQLQARGILLDGSSVEGDKRLLLQIFSETLMGPVFFEFIQRKGDDGFGPDSFKVLFESKERDQVRRGVLTAD ?
Output: 69

Attribution: patent US10597674B2
